Cited source: the RNAGym collection of RNA variant scans (doi:10.7554/elife.90254)

B1: LINE1-full (parent)
chain: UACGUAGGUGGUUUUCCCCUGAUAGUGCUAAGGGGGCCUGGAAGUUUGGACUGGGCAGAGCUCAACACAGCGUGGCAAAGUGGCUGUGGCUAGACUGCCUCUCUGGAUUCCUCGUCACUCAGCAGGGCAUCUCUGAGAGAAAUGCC

Variants of: B1
assay.summary: self-cleavage, relative activity (ratio to wild type); higher = more cleavage; in vitro, sequencing; the parent is a self-cleaving ribozyme
property.name: self-cleavage
No unit in the answer, only the number.

Example results:
{"item.sequence": "UACGUAGGUGGUUUUCCCCUGAUAGUGCUAAGGGGGCCUGGAAGUUUGGACUGGGCAGAGCUCAACACAGCGUGGCAAAGUGGCUGUGGCUAGACUGCCUCUCUGGAUUCCUCGACACUCUGCAGGGCAUCUCUGAGAGAAAUGCC", "value.observed": 1.5}
{"item.sequence": "UACGUAGGUGGUUUUCCCCUGAUAGUGCUAAGGGGGCCUGGAAGUUUGGACUGGGCAGAGCUCAACACAGCGUGGCAAAGUGGCUGUGGCCAGACUGCCUCUCUGGAUUCCUAGUCACUCAGCAGGGCAUCUCUGAGAGAAAUGCC", "value.observed": 0.82}
{"item.sequence": "UACGUAGGUGGUUUUCCCCUGAUAGUGCUAAGGGGGCCUGGAAGUUUGGACUGGGCAGAGCUCAACCCAGCGUGGCAAAGUGGCUGUGGCUAGACUGCCUCUCGGGAUUCCUCGUCACUCAGCAGGGCAUCUCUGAGAGAAAUGCC", "value.observed": 0.14}

We next turn to a different variant, shown below.
Prompt line: // query self-cleavage value for entry `UACGUAGGUGGUUUGCCCCUGAUAGUGCUAAGGGGGCCAGGAAGUUUGGACUGGGCAGAGCUCAACACAGCGUGGCAAAGUGGCUGUGGCUAGACUGCCUCUCUGGAUUCCUCGUCACUCAGCAGGGCAUCUCUGAGAGAAAUGCC`
Response line: 1.19
